Value source: patent US7074789B2

Tek (Homo sapiens, UniProt Q02763) IC50 data
Sequence (Q02763 23-1124, species assumed): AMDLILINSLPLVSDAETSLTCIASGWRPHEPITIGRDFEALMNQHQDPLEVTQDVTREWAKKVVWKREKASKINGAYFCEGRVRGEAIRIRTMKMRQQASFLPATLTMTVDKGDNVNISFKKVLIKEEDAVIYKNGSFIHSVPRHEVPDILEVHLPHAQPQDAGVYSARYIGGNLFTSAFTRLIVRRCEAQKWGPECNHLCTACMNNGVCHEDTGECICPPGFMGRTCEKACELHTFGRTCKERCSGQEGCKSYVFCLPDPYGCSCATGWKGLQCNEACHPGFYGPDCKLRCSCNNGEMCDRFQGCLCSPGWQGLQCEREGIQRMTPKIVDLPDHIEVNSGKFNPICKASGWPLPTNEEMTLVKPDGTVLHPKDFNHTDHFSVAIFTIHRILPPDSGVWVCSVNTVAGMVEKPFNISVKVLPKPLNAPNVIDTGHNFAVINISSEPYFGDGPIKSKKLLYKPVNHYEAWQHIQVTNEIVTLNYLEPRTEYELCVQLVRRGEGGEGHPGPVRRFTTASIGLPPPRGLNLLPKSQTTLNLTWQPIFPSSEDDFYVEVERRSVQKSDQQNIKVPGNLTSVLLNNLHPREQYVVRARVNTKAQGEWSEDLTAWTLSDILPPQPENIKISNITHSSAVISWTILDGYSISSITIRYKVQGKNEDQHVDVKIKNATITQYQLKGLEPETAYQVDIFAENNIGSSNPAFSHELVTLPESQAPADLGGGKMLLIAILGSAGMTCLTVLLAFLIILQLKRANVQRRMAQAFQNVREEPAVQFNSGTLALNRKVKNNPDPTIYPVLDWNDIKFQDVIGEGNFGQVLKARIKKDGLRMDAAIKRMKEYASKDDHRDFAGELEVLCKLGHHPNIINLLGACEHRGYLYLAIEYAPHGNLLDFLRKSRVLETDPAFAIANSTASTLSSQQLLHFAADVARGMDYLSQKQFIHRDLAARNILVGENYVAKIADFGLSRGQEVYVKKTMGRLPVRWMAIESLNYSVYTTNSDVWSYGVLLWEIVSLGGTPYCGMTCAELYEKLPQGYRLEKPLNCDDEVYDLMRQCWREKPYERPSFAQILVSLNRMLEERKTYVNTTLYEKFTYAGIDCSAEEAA

COc1ccc(Nc2ncnc(Nc3cc(OC)c(OC)c(OC)c3)n2)cc1OC | 8.47 to 10.9 µM
O=c1[nH]c2ccccc2n1-c1ncnc(Nc2nccc3ccccc23)n1 | 6.75 to 9.85 µM
COc1cc(Nc2ncnc(Nc3ccc4c(c3)Cc3ccccc3-4)n2)cc(OC)c1OC | > 10.2 µM
CCN(CC)CCOc1cc(Nc2ncnc(-n3c(N)nc4ccccc43)n2)ccc1OC | 5.35 to 7.8 µM
COc1cc(Nc2ncnc(Nc3ccc(C)c(O)c3)n2)cc(OC)c1OC | 9.13 to 11.7 µM
O=C(O)Cc1cccc(Nc2ncnc(Nc3cc(-c4ccco4)n[nH]3)n2)c1 | 6.36 to 9.27 µM

Exam item: Give IC50 for this entry on Tek (Homo sapiens, UniProt Q02763): COc1cc(Nc2ncnc(-n3c(N)nc4ccccc43)n2)cc(OCCN2CCOCC2)c1OC
Marked response: 7.11 to 9.14 µM

Exam item: Provide IC50, tested on Tek (Homo sapiens, UniProt Q02763), for COc1cc(Nc2ncnc(-n3c(Nc4ccccc4C)nc4ccccc43)n2)cc(OC)c1OC .
Marked response: > 9.31 µM

Exam item: # lookup: Tek (Homo sapiens, UniProt Q02763) IC50, key = NC(=O)c1cccc(Nc2ncnc(-n3c(N)nc4ccccc43)n2)c1
Marked response: 1.15 to 6.93 µM

Exam item: Recall the reported IC50 of COc1cc(Nc2ncnc(-n3cc(C)c4ccccc43)n2)cc(OC)c1OC on Tek (Homo sapiens, UniProt Q02763) and write it down.
Marked response: > 11.5 µM

Exam item: Look up Tek (Homo sapiens, UniProt Q02763) data: IC50 of COc1cc(Nc2ncnc(Nc3cc(-c4cccs4)n[nH]3)n2)cc(OC)c1OC , then report it.
Marked response: 5.64 to 8.23 µM

Exam item: # return IC50 for COc1ccc(Nc2ncnc(Nc3ccc(OCc4ccccc4)cc3)n2)cc1O , test system: Tek (Homo sapiens, UniProt Q02763)
Marked response: > 10.8 µM

Exam item: Give IC50; test system Tek (Homo sapiens, UniProt Q02763); compound COc1cc(Nc2ncnc(Nc3cccc(O)c3)n2)cc(OC)c1OC
Marked response: > 12.2 µM

Exam item: Please indicate recorded IC50 of COc1cc(Nc2ncnc(-c3cccnc3NCc3ccccc3F)n2)cc(OC)c1OC measured with Tek (Homo sapiens, UniProt Q02763).
Marked response: > 9.73 µM

Exam item: Give measured IC50 for COc1cc(Nc2ncnc(Nc3ccc(Br)c4ccccc34)n2)cc(OC)c1OC (Tek (Homo sapiens, UniProt Q02763)).
Marked response: > 9.33 µM

Exam item: Give the observed IC50 of COc1cc(Nc2ncnc(Nc3cc(OC)c(OC)c(OC)c3)n2)cc(OC)c1 for Tek (Homo sapiens, UniProt Q02763).
Marked response: > 10.9 µM

Exam item: Send back Tek (Homo sapiens, UniProt Q02763) IC50 of COc1ccc(Nc2ncnc(Nc3cc(-c4ccco4)n[nH]3)n2)cc1OC only.
Marked response: > 11.9 µM

Exam item: Please report IC50 with Tek (Homo sapiens, UniProt Q02763) for item COc1ccc(Nc2ncnc(-n3c(N)nc4ccccc43)n2)cc1OC .
Marked response: > 12.4 µM

Exam item: Please look at COc1cc(Nc2ncnc(-n3c(Nc4cccc(C)c4)nc4ccccc43)n2)cc(OC)c1OC and tell me its recorded IC50 on Tek (Homo sapiens, UniProt Q02763).
Marked response: > 9.31 µM
